Where do these numbers come from? They come from PubChem BioAssay (NCI).

Test system: SR leukemia
Experiment: NCI-60 one-dose screen, 48 h
Details: 10 µM unless noted
Compounds without any hit were thinned out: in the full panel of roughly 83,000, 20% have a hit. Activity calls are given as the source filed them. How the source made its calls: active means growth percent below 10; inactive means the rest.
The reply should name one outcome from label 1 (active), label 0 (inactive)

See these solved cases before continuing.
>  <ITEM_SMILES>
O=Cc1ccc(O)c2ncccc12

>  <STUDY_SYSTEM>
SR leukemia

>  <ANSWER_LABEL>
label 1

$$$$
>  <ITEM_SMILES>
COc1ccc(-c2cc(-c3cc(OC)ccc3OC)nc(SCC(=O)c3ccccc3)c2C#N)cc1

>  <STUDY_SYSTEM>
SR leukemia

>  <ANSWER_LABEL>
label 0

$$$$
>  <ITEM_SMILES>
Cc1ccc2nc3ccccc3c(NCc3ccccc3)c2c1

>  <STUDY_SYSTEM>
SR leukemia

>  <ANSWER_LABEL>
label 1

$$$$

Prompt: In this assay, the call recorded for `Cc1ccc(C(=O)COc2cccc(/C=C3\Oc4ccccc4C3=O)c2)cc1` was what?
Completion: label 0

Prompt: In this assay, the call recorded for `CCN(CC)CCN1CC(O)=C(c2nc(-c3ccc(Cl)cc3)cs2)C1=N` was what?
Completion: label 1

Prompt: In this assay, the call recorded for `C[C@H](NC(=O)[C@@H]1CSSC[C@@H](NC(=O)c2nc3ccccc3cc2O)C(=O)NCC(=O)N1C)c1ccccc1` was what?
Completion: label 1

----------
Test system: IGROV1 ovarian
Assay: NCI-60 one-dose screen, 48 h (100 = growth as untreated, 0 = no growth, -100 = all killed)
Details: 10 µM unless noted
Compounds without any hit were thinned out: in the full panel of roughly 83,000, 20% have a hit.
The threshold is 40%. Values of growth beneath it are tagged YES; values meeting or exceeding it are tagged NO.

>  <COMPOUND>
O=C(Nc1ccccc1)Nc1cccc(Oc2nnc(Cl)c3ccccc23)c1

>  <STUDY_SYSTEM>
IGROV1 ovarian

>  <ANSWER_LABEL>
YES

$$$$
>  <COMPOUND>
c1ccc(-c2nc([P+](c3ccccc3)(c3ccccc3)c3ccccc3)c(N3CCOCC3)o2)cc1

>  <STUDY_SYSTEM>
IGROV1 ovarian

>  <ANSWER_LABEL>
YES

$$$$

Prompt: Below 40% on growth? Entry CC1CC(C(C)(C)C)C(=O)C(C(C)(C)C)C1 (stereo not given)
Completion: NO

Prompt: Below 40% on growth? Entry `Cc1ccc(C(=O)CSc2nc(-c3ccc(Br)cc3)c(C#N)c(=O)[nH]2)cc1`
Completion: NO

Prompt: Below 40% on growth? Entry `COc1cc(/C=N/NC(=O)Cn2c(C(C)C)nc3ccccc32)ccc1O`
Completion: NO

----------
Test system: TK-10 renal
Assay: NCI-60 one-dose screen, 48 h (100 = growth as untreated, 0 = no growth, -100 = all killed)
Details: 10 µM unless noted
Protocol: Growth inhibition of the TK-10 human tumor cell line is measured as a screen for anti-cancer activity. Cells are grown in 96 well plates and exposed to the test compound for 48 hours. Compounds are tested at a single concentration, which is 10^-5 M for most compounds. The reported endpoint is percent growth (GI% or GIPRCNT), where numbers from 0 - 100% represent growth inhibition, and numbers from -100% - 0 represent cell death. For example, a value of 40 represents 60% growth inhibition. […]
This is part of a sample that, as a whole, favours compounds with a hit. Of some 83,000 tested, about 20% had one in any assay.
growth of 70% or higher: rule met. Under 70%: rule not met.

Prompt: Test whether the molecule N#CC1=C(c2ccc(Br)cc2)NC(SCC(=O)c2ccc(Br)cc2)NC1=O (stereo unspecified) records growth of 70% or higher.
Completion: rule met

Prompt: Test whether the molecule `N=C(N)c1ccc(-c2ccc(-c3cncc4ccccc34)s2)s1` records growth of 70% or higher.
Completion: rule not met

Prompt: Test whether the molecule `O=C(NCCCNc1cc(-c2cn(-c3ccccc3)nc2-c2cccc(O)c2)ccn1)c1ccccc1` records growth of 70% or higher.
Completion: rule not met

Prompt: Test whether the molecule `CCCCCc1nc2c(c3c1CCCC3)CCCC2` records growth of 70% or higher.
Completion: rule met

Prompt: Test whether the molecule CCCCN(CCCC)CC(C)(C)C(O)c1ccc(OC)c2ccccc12 (stereo unspecified) records growth of 70% or higher.
Completion: rule not met

Prompt: Test whether the molecule CCN(CC)CCCC(C)Nc1c2ccc(Cl)cc2nc2ccc(O)cc12 (stereo unspecified) records growth of 70% or higher.
Completion: rule not met

----------
Here the recorded growth is given for each entry.
System: OVCAR-5 ovarian
Assay: NCI-60 one-dose screen, 48 h (100 = growth as untreated, 0 = no growth, -100 = all killed)
Details: 10 µM unless noted
About 83,000 compounds went through this panel and 20% of them were active in at least one assay; those are over-represented in the sample as a whole. Active and inactive are the calls of the source. Rule for the calls: active = growth percent below 10; inactive = the rest.

>  <ITEM_SMILES>
CCOC(=O)c1ccc(N2NC(=O)/C(=C/c3ccc([N+](=O)[O-])o3)C2=O)cc1

>  <STUDY_SYSTEM>
OVCAR-5 ovarian

>  <growth>
108% (inactive)

$$$$
>  <ITEM_SMILES>
O=c1[nH][n+](-c2ccc(Cl)cc2)no1

>  <STUDY_SYSTEM>
OVCAR-5 ovarian

>  <growth>
77% (inactive)

$$$$
>  <ITEM_SMILES>
COC1=C(OC)C(=O)C(OC)=C(OC)C1=O

>  <STUDY_SYSTEM>
OVCAR-5 ovarian

>  <growth>
108% (inactive)

$$$$
>  <ITEM_SMILES>
C=C(C)[C@@H]1CC=C2c3sc(-c4ccc(C)cc4)nc3C[C@@H](C)[C@]2(C)C1

>  <STUDY_SYSTEM>
OVCAR-5 ovarian

>  <growth>
101% (inactive)

$$$$
>  <ITEM_SMILES>
O=C(Nc1cccc(Cl)c1)c1cc(N=Nc2ccc([N+](=O)[O-])cc2Cl)ccc1O

>  <STUDY_SYSTEM>
OVCAR-5 ovarian

>  <growth>
112% (inactive)

$$$$
>  <ITEM_SMILES>
COc1ccc(-c2nc(SCCC(C)C)nc(N/N=C\c3cccc([N+](=O)[O-])c3)c2C#N)cc1

>  <STUDY_SYSTEM>
OVCAR-5 ovarian

>  <growth>
38.4% (inactive)

$$$$
>  <ITEM_SMILES>
O=c1ssc(Cl)c1-c1ccccc1

>  <STUDY_SYSTEM>
OVCAR-5 ovarian

>  <growth>
88.7% (inactive)

$$$$
>  <ITEM_SMILES>
O=c1c2c3c(sc2n2c(-c4cn(-c5ccccc5)nc4-c4ccc(Cl)cc4)nnc2n1Cc1ccccc1)CCCC3

>  <STUDY_SYSTEM>
OVCAR-5 ovarian

>  <growth>
103% (inactive)

$$$$
>  <ITEM_SMILES>
Fc1cnc(NC2CC2)nc1-c1cnc2ccc(N3CCOCC3)cn12

>  <STUDY_SYSTEM>
OVCAR-5 ovarian

>  <growth>
-4.33% (active)

$$$$

Let's switch to this compound now.
Prompt: So what's the measured growth for this one? `CCOC(=O)/C=C/c1cc2cc(-c3csc4ccccc34)ccc2[nH]1`
Completion: 101% (inactive)

----------
System: CCRF-CEM leukemia
Experiment: NCI-60 one-dose screen, 48 h (100 = growth as untreated, 0 = no growth, -100 = all killed)
Details: 10 µM unless noted
Description: Growth inhibition of the CCRF-CEM human tumor cell line is measured as a screen for anti-cancer activity. Cells are grown in 96 well plates and exposed to the test compound for 48 hours. Compounds are tested at a single concentration, which is 10^-5 M for most compounds. The reported endpoint is percent growth (GI% or GIPRCNT), where numbers from 0 - 100% represent growth inhibition, and numbers from -100% - 0 represent cell death. For example, a value of 40 represents 60% growth inhibition. […]
The panel holds about 83,000 compounds, 20% with a hit somewhere; the sample as a whole holds those more often.
The threshold is 20%. Values of growth beneath it are tagged Criterion met; values meeting or exceeding it are tagged Criterion not met.

>  <COMPOUND>
COc1ccc2c(c1)O/C(=C\c1cccc(OCC(=O)Nc3nc4ccccc4s3)c1)C2=O

>  <ANSWER_LABEL>
Criterion met

$$$$
>  <COMPOUND>
Cc1cc(C(=O)c2ccccc2)c(C)c2c1[nH]c1ccc(Cl)cc12

>  <ANSWER_LABEL>
Criterion met

$$$$
>  <COMPOUND>
CCCCn1c(=O)c2c(nc3n2CCCN3CCc2ccc(OCC(=O)NCCN(CC)CC)cc2)n(CCCC)c1=O

>  <ANSWER_LABEL>
Criterion not met

$$$$
>  <COMPOUND>
N#Cc1c2c(nn(-c3ccccc3)c1=O)C(O)=C([N+](=O)[O-])C(c1ccccc1)C2 (stereo not given)

>  <ANSWER_LABEL>
Criterion not met

$$$$
>  <COMPOUND>
CCCCc1ccc(Nc2ccc(Nc3ccc(CCCC)cc3S(=O)(=O)O)c3c2C(=O)c2ccccc2C3=O)c(S(=O)(=O)O)c1

>  <ANSWER_LABEL>
Criterion not met

$$$$
>  <COMPOUND>
CCCCN(CCCC)CC(C)(C)C(O)c1ccc(OC)c2ccccc12 (stereo not given)

>  <ANSWER_LABEL>
Criterion not met

$$$$
>  <COMPOUND>
N#Cc1c(N)nc(NCCO)nc1-c1ccc(F)cc1

>  <ANSWER_LABEL>
Criterion not met

$$$$
>  <COMPOUND>
COC(=O)/C=C1\S/C(=N\NS(=O)(=O)c2ccc(C)cc2)N(c2ccccc2)C1=O

>  <ANSWER_LABEL>
Criterion not met

$$$$

Prompt: Below 20% on growth? Entry `O=C(NCCCNc1cc(-c2cn(-c3ccccc3)nc2-c2cccc(O)c2)ccn1)c1ccc(F)cc1`
Completion: Criterion not met

Prompt: Below 20% on growth? Entry `Cc1ccc(S(=O)(=O)N/N=C\c2cc(Cl)ccc2O)cc1`
Completion: Criterion not met

Prompt: Below 20% on growth? Entry `Cc1cc(=O)[nH]c(N=Nc2c(O)[nH]c3ccccc23)n1`
Completion: Criterion not met
